Values compiled from ChEMBL document CHEMBL1148405.

Assignment: determine reported Kd for the given compounds.
Molecular target: Estrogen receptor (Ovis aries, UniProt P49885+Q9TU15)
Test: Displacement of [3H]-estradiol (E2) from sheep uterine estrogen receptor
One number for each entry, in M l-1.

Record excerpt, results attached:
compound	unitName	numericResult
CCC1Cc2cc(O)ccc2C2=C1c1ccc(O)cc1CC2CC (stereo not given)	M l-1	3e-9
Oc1ccc(C2COc3cc(O)c(O)cc3C2)cc1 (stereo not given)	M l-1	0.000011
Oc1ccc2ccc3c4ccccc4ccc3c2c1	M l-1	4e-6
Oc1ccc2c(cc3ccc4cccc5ccc2c3c45)c1O	M l-1	0.000014
Oc1ccc2ccc3c4ccccc4cc4ccc1c2c43	M l-1	1.1e-6

State the recorded Kd for every item in the following list.
1. O=c1c(-c2ccc(O)cc2)coc2cc(O)ccc12
2. Oc1ccc2c(ccc3c4ccccc4ccc23)c1O

Given back:
1. 5.9e-6
2. 8.8e-7

Asked: What measured Kd goes with "Brc1ccccc1-c1ccccc1Br" ?
Given back: 0.00016
